Target: NOD2 (Homo sapiens, UniProt Q9HC29)
Construct: host or cells: HEK-Blue NOD2 cells (HEK293-derived)
Sequence (Q9HC29 whole entry): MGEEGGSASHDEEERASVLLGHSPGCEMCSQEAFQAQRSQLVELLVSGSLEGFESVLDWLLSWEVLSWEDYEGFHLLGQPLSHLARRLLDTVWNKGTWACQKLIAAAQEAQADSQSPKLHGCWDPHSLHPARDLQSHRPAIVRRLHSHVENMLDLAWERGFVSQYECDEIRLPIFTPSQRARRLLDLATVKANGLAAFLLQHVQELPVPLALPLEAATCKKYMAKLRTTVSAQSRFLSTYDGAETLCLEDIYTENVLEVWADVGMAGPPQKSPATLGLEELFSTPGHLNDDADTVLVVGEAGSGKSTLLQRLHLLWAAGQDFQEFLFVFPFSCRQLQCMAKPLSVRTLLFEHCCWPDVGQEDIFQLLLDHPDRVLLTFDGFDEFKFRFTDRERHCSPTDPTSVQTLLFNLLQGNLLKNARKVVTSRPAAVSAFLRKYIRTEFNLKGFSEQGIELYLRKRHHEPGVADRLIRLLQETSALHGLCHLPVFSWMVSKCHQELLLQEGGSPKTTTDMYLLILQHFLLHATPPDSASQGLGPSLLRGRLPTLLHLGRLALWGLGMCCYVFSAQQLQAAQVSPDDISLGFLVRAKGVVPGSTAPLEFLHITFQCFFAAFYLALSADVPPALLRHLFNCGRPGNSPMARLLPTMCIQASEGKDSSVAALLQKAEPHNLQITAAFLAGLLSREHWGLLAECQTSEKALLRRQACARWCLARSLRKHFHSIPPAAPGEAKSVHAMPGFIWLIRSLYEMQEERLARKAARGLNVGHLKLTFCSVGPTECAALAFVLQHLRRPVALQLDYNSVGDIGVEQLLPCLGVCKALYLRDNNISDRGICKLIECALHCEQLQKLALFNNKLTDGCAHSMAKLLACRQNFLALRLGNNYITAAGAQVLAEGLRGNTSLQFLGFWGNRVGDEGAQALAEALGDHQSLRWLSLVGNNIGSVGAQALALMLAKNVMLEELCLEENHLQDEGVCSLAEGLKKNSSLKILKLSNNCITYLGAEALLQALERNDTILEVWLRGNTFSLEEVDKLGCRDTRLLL
Assay: HEK-Blue NOD2 cell line reporter assay (NF-κB-inducible SEAP)
Type: cell-based
Conditions: HEK-Blue NOD2 cells, 2 μM, 18 h, NF-κB transcriptional (SEAP) activity relative to 0.1% DMSO, mean ± SEM
Observation type: NOD2 activity at 2 μM (fold increase)
Numbers only, in fold increase.

// known answers, use as guide
[[record]]
molecule = "CCOC(=O)CC[C@@H](NC(=O)[C@@H](NC(=O)CNC(=O)CCc1ccc(O)c(OC)c1)C(C)C)C(=O)OCC"
number = 1.97

[[record]]
molecule = "CCCCCCCCCCCC(=O)Oc1ccc(/C=C/C(=O)NCC(=O)N[C@H](C(=O)N[C@H](CCC(=O)OCC)C(=O)OCC)C(C)C)cc1OC"
number = 3.17

[[record]]
molecule = "CCOC(=O)CC[C@@H](NC(=O)[C@@H](NC(=O)CNC(=O)/C=C/c1ccc(C(C)C)cc1)C(C)C)C(=O)OCC"
number = 2.83


Working through the 3 molecules below one at a time, give NOD2 activity at 2 μM (fold increase) for each.
1. COc1cc(/C=C/C(=O)NCC(=O)N[C@H](C(=O)N[C@H](CCC(=O)OC2CCCC2)C(=O)OC2CCCC2)C(C)C)ccc1OC(C)=O
2. COc1cc(/C=C/C(=O)NCC(=O)N[C@H](C(=O)N[C@H](CCC(=O)N(C)OC)C(=O)OC(C)(C)C)C(C)C)ccc1O
3. CCCCCCCCCCCCCCCCCC(=O)Oc1ccc(/C=C/C(=O)NCC(=O)N[C@H](C(=O)N[C@H](CCC(=O)OC2CCCC2)C(=O)OC2CCCC2)C(C)C)cc1OC

2.67
1.33
1.66

Please give NOD2 activity at 2 μM (fold increase) for each item listed below.
1. COc1cc(/C=C/C(=O)NCC(=O)N[C@H](C(=O)N[C@H](CCC(=O)OC(C)(C)C)C(=O)N2CCCC2)C(C)C)ccc1O
2. COc1cc(/C=C/C(=O)NCC(=O)N[C@H](C(=O)N[C@H](CCC(=O)N2CCCC2)C(=O)OC(C)(C)C)C(C)C)ccc1O

[1.33, 1.43]

Batch: NOD2 activity at 2 μM (fold increase) for all items listed.
1. CCNC(=O)CC[C@@H](NC(=O)[C@@H](NC(=O)CNC(=O)/C=C/c1ccc(O)c(OC)c1)C(C)C)C(=O)NCC
2. COc1cc(/C=C/C(=O)NCC(=O)N[C@H](C(=O)N[C@H](CCC(=O)OC(C)(C)C)C(=O)OC(C)(C)C)C(C)C)ccc1O
3. CCOC(=O)CC[C@@H](NC(=O)[C@@H](NC(=O)CNC(=O)[C@@H]1C[C@H]1c1ccc(F)c(F)c1)C(C)C)C(=O)OCC [Compound 29b]
4. CCOC(=O)CC[C@@H](NC(=O)[C@@H](NC(=O)CNC(=O)C1CC1c1ccc(O)c(OC)c1)C(C)C)C(=O)OCC (some centres unmarked)
5. CCCCCCCCCCCCCCCCCC(=O)Oc1ccc(/C=C/C(=O)NCC(=O)N[C@H](C(=O)N[C@H](CCC(=O)OCC)C(=O)OCC)[C@@H](C)O)cc1OC
6. CCOC(=O)CC[C@@H](NC(=O)[C@@H](NC(=O)CNC(=O)/C=C/c1ccc([N+](=O)[O-])cc1)C(C)C)C(=O)OCC
7. COc1cc(/C=C/C(=O)NCC(=O)N[C@H](C(=O)N[C@H](CCC(=O)OC(C)(C)C)C(=O)N(C)OC)C(C)C)ccc1O
8. CCCCCCCCCCCCCCCCCC(=O)NCCCC[C@H](NC(=O)CC[C@@H](NC(=O)[C@@H](NC(=O)CNC(=O)/C=C/c1ccc(O)c(OC)c1)C(C)C)C(=O)OCC)C(=O)OC

1: 1.45; 2: 1.20; 3: 2.71; 4: 2.66; 5: 1.96; 6: 3.02; 7: 1.36; 8: 2.00

Dear colleague, I am looking for the recorded NOD2 activity at 2 μM (fold increase) of the following molecule: `CCOC(=O)CC[C@@H](NC(=O)[C@@H](NC(=O)CNC(=O)/C=C/c1ccc(O)c(OC)c1)[C@@H](C)O)C(=O)OCC`
1.54
